# target or system: T1, EsCas13d, nuclease-dead (Eubacterium siraeum, UniProt B0MS50, R295A;H300A;R849A;H854A)
# T1 sequence: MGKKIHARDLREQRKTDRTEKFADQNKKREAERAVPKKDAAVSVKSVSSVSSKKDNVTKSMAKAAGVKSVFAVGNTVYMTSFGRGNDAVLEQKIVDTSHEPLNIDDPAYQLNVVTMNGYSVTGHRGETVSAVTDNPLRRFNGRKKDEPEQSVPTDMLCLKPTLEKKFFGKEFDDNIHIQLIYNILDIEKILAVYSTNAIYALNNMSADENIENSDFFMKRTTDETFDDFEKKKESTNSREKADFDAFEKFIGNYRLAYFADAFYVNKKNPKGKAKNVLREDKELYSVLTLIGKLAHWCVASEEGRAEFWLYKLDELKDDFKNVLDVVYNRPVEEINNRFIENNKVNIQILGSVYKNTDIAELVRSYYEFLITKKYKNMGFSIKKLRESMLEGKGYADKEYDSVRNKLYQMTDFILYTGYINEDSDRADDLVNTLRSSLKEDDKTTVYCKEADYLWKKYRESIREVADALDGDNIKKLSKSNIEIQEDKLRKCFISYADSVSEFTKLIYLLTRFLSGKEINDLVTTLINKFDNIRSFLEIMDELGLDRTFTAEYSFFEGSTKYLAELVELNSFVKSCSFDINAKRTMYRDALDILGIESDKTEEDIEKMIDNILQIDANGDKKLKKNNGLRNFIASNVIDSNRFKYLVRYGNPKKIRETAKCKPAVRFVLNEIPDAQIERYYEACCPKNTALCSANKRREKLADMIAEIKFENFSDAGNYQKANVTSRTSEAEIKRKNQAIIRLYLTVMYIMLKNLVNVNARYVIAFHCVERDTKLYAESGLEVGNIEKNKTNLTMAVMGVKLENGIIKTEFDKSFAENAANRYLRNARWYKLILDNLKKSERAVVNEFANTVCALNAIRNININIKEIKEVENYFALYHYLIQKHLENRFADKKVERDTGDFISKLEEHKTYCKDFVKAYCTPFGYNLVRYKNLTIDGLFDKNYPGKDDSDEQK
# procedure text: crRNA (strand 1, pre-loaded); Mg2+; 40 mM Tris-HCl pH 7.5, 150 mM NaCl, 6 mM MgCl2, 1 mM DTT, 0.1% Tween-20, 0.2 mg/ml BSA; 25 C; 10 min per concentration, then washed
# measurement parameters: tags: His6-TwinStrep-SUMO cleaved; N-terminal SNAP kept (SNAP-Surface 488); label: 3' end held by stalled T7 RNA polymerase
// values below are reported Kd
Just the number in nM, nothing appended.

binder	Kd (nM)
target 1 A9C,C22A (mixed) RNA 1: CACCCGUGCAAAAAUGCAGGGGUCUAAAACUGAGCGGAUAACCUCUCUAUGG RNA 2: GGGAAUGGAUCCACAUCUACGAAUUCGUAACAUAGAGAGGUUCUCCGCUCACCGAGAUCGGAAGAGCACACGU	47

Lookup result for target 1 U3C,A14C (mixed) RNA 1: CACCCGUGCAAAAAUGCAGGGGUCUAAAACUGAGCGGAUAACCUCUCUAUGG RNA 2: GGGAAUGGAUCCACAUCUACGAAUUCGUACCAUAGAGCGGUUAUCCGCCCACCGAGAUCGGAAGAGCACACGU ; measured Kd: 84

Lookup result for target 2 MT 5'PFS AAA 3'PFS AGC (mixed) RNA 1: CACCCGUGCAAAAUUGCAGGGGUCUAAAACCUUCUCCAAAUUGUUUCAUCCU RNA 2: GGGAAUGGAUCCACAUCUACGAAUUCAAAAGGAUGAAACAAUUUGGAGAAGAGCAGAUCGGAAGAGCACACGU ; measured Kd: 4.2

Lookup result for target 1 insU 3' of 18,insG 3' of 3 (mixed) RNA 1: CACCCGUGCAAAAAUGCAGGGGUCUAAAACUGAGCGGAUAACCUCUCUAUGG RNA 2: GGGAAUGGAUCCACAUCUACGAAUUCGUACCAUAUGAGAGGUUAUCCGCUGCACCGAGAUCGGAAGAGCACACGU ; measured Kd: 17.7
